Hello, the source for this data is paper PMC4957748, in case you need it.

# Tested on: laryngeal carcinoma (Hep2) cells
# Test: MTT antiproliferative assay, Hep2
# Assay type: cell-based, human
# Applied conditions: 24 h of drug exposure, mean±SD of 3 experiments
# Description: All cell lines were purchased from American Type Culture Collection (ATCC, Manassas, VA, USA). […] The antiproliferative activity of the synthetic compounds was measured by 3-(4, 5- dimethylthiazol-2-yl)-2, 5-diphenyltetrazolium bromide (MTT) assay. […] After 5 min, the plates were read on a plate microreader (TECANSPECTRA, Wetzlar, Germanay) at 490 nm. […]
Readout type: IC50 (µM)
Provide only the numeric value, understood in µM.

Request: State the recorded IC50 for this entry: N.N.[Cl][Pt][Cl] [Cpt, cis-platinum]
Result: 12.3
